STUDY_SYSTEM: Epoxide hydrolase 1 (Homo sapiens)
Sequence (P07099 whole entry): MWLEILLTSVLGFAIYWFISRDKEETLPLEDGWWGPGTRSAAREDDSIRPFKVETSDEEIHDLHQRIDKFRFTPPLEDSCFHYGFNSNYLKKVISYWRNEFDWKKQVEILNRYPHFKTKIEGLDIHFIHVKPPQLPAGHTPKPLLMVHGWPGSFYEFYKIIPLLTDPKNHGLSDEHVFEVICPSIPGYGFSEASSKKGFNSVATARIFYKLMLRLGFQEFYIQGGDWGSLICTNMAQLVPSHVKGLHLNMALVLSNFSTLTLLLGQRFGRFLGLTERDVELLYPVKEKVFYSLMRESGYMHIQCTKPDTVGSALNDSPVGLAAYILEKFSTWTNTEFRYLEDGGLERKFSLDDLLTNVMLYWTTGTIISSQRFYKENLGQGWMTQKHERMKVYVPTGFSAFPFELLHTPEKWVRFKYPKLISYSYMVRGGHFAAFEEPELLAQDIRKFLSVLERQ
Decision: IC50 beneath 2000 nM gives TRUE; IC50 meeting or exceeding 2000 nM gives FALSE.

Solved cases below.
{"MOLECULE": "CC(=O)NC(=S)Nc1ccc(Cl)cc1", "DISCRETE_LABEL": "FALSE"}
{"MOLECULE": "O=C(NC(=S)Nc1ccc(Br)cc1)c1ccccc1", "DISCRETE_LABEL": "FALSE"}
{"MOLECULE": "CC(=O)NC(=S)Nc1cc(Cl)ccc1Cl", "DISCRETE_LABEL": "FALSE"}
{"MOLECULE": "O=C(NC(=S)Nc1ccncc1)c1ccccc1", "DISCRETE_LABEL": "FALSE"}
{"MOLECULE": "CC(=O)NC(=S)Nc1ccc(Br)c2ccccc12", "DISCRETE_LABEL": "FALSE"}

Next molecule, please.
# strict comparison: is reported IC50 < 2000 nM? input = O=C(NC(=S)Nc1ccc(Br)c(C(F)(F)F)c1)c1ccccc1
TRUE
